Assign Neutralization IC50 (RSV subtype A) to each entry below.
- measurement_target: RSV F on RSV-A2 virus (Respiratory Syncytial Virus (RSV-A2), UniProt P03420 26-574)
- protocol_text: cell-based or functional assay

Q) Using the record for ADI-41482 (antibody, V domains shown) VH: QVQLVQSGAEVKKPGSSVKVSCKASGGTFGSYTINWVRQAPGQGLEWMGGIIPIFGATNYAQNFQGRVSITADKSTATAYMDLISLRSEDTAVYYCARLGRSSPLNSCTTTSCYFWGRGMDVWGQGTTVTVSS VL: QSVLIQPASVSGSPGQSITISCTGTISDVGIYNYVSWYQQHPGKAPKLIISDVSDRPSGVSNRFSGSKSGITASLTITGLQAEDEADYYCSSYSSSSTLYVFGTGTKLTVL , report its Neutralization IC50 (RSV subtype A).
A) > 25 µg/mL

Q) Proceed to ADI-41549 (antibody, V domains shown, also called Ab 821; Antibody Number 821) VH: EVQLLESGGGVVQPGGSLRLSCAASGFTFSGYGMHWVRQAPGKGLEWVAFIQYNGSNKYYADSVKGRFTISRDNSKNTLYVQLNSLRAEDTAVYYCATDILVVPAATPLISYYFGMDVWGQGTTVTVSS VL: QSALTQPASVSGSPGQSITISCTGTSSDVGGYNYVSWYQQYPGKAPKLMIYEVTNRPSGVSNRFSGSKSGNTASLTISGLQAEDEADYYCCSYTSTNTRVFGTGTKVTVL
A) > 25 µg/mL
